assay: Inhibition of Staphylococcus aureus TMK assessed as decrease in ATP production using dTDP and ADP as substrate after 3.5 hrs by luciferin/luciferase based luminescence analysis
Catalogue of pIC50 values
Please keep in mind that pIC50 is minus log10 of the molar concentration; only the number is needed.

# count of solved cases: 3
SMI	VAL
Cc1cn([C@H]2CCCN(Cc3cccc(Oc4cccc(Cl)c4)c3F)C2)c(=O)[nH]c1=O	7.07
CCC[C@H](c1ccc(C(=O)O)c(Oc2cccc(Cl)c2)c1F)N1CCC[C@H](n2cc(C)c(=O)[nH]c2=O)C1	8.22
Cc1cn([C@H]2CCCN(Cc3ccc(C(=O)O)c(Oc4cccc(Cl)c4)c3F)C2)c(=O)[nH]c1=O	7.92

Q: Could you share which pIC50 value was measured for `Cc1cn([C@H]2CCCN([C@H](CC(C)(C)C)c3ccc(C(=O)O)c(Oc4cccc(Br)c4)c3)C2)c(=O)[nH]c1=O` ?
Ans: 9.10

Q: Next entry: `COc1c(CN2CCC[C@H](n3cc(C)c(=O)[nH]c3=O)C2)cccc1Oc1cc(F)cc(Cl)c1`
Ans: 6.32

---

Listing of entries alongside the reported Retention_time.
assay: Retention time of the compound by LC-MS method; type: physicochemical
The response must be a number in min with no trailing unit.

Check out these entries, answers already filled in.
COMPOUND	UNITS_OF_MEASURE	Retention_time
CCCc1c(CN2CCC[C@H](n3cc(C)c(=O)[nH]c3=O)C2)cccc1Oc1cc(F)cc(Cl)c1	min	2.5
CCC(c1ccc(Br)c(Oc2cccc(Cl)c2)c1OC)N1CCC[C@H](n2cc(C)c(=O)[nH]c2=O)C1 (some centres undefined)	min	2.41
Cc1cn([C@H]2CCCN(Cc3cccc(Oc4cccc(Cl)c4)c3F)C2)c(=O)[nH]c1=O	min	2
CCC[C@H](c1ccc(C(=O)O)c(Oc2cccc(Cl)c2)c1OC)N1CCC[C@H](n2cc(C)c(=O)[nH]c2=O)C1	min	2.18

Q: Reported Retention_time, compound `Cc1c(CN2CCC[C@H](n3cc(C)c(=O)[nH]c3=O)C2)cccc1Oc1cc(F)cc(Cl)c1` : ____
Ans: 2.3

Q: Next entry: `O=Cc1cccc(O)c1F`
Ans: 1.23

Q: Now the same for `CC[C@@H](c1ccc(C(=O)O)c(Oc2cccc(Cl)c2)c1F)N1CCC[C@H](n2cc(C)c(=O)[nH]c2=O)C1`
Ans: 1.72

Q: Let us now turn to `Cc1cn([C@H]2CCCN([C@@H](CC(C)C)c3ccc(C(=O)O)c(Oc4cccc(Cl)c4)c3F)C2)c(=O)[nH]c1=O`
Ans: 2

Q: Cc1cn([C@H]2CCCN(C(CC(C)C)c3ccc(C(=O)O)c(Oc4cccc(Cl)c4)c3F)C2)c(=O)[nH]c1=O (some centres undefined) ?
Ans: 1.99
